// provenance: paper PMC10709440

# Assay target: Drosophila OR10a (Drosophila melanogaster)
# Construct: expressed in transfected cells
# Sequence (Q9VYZ1 1-406): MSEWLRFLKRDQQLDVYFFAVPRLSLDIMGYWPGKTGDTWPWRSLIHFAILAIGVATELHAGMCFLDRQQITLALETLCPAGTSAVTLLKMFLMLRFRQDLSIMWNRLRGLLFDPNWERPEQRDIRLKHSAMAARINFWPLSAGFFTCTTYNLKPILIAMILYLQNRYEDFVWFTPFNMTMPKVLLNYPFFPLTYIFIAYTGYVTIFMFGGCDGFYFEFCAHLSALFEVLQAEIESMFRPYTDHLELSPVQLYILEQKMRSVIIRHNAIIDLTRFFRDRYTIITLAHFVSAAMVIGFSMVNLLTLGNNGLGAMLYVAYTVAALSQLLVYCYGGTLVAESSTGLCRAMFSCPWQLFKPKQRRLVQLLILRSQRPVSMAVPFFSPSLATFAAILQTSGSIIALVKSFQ
# Sequence (Q9VNB5 1-486 partner): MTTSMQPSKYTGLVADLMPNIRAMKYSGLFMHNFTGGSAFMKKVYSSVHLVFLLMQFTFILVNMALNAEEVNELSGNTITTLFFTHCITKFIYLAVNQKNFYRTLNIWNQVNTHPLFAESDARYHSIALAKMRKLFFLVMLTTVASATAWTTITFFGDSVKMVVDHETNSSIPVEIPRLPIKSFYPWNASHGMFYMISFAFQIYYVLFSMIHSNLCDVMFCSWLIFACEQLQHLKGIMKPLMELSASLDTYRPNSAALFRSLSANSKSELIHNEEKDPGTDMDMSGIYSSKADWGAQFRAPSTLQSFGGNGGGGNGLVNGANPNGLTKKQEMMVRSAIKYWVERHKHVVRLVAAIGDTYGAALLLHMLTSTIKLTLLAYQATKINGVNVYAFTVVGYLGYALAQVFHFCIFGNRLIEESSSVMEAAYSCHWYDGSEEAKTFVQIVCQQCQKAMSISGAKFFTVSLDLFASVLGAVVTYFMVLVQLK
# Assay details: Calcium ion fluorescence (GCaMP6) assay, OR10a stable HEK293 cell line
# Type: cell-based
# Protocol conditions: ligand concentration 10 (unit not given); threshold 0.05, below shown as 0
Measured DF norm AVERAGE OR10a, listed per entry for reference.
// keep it numeric: no unit symbol after the value

State its DF norm AVERAGE OR10a on Drosophila OR10a (Drosophila melanogaster): CCCC(=O)OCC [ethyl butyrate] 0

Find the measured DF norm AVERAGE OR10a: item CCc1ccccc1 [ethylbenzene] , target or system Drosophila OR10a (Drosophila melanogaster). 0

Notebook entry, Drosophila OR10a (Drosophila melanogaster) assay: DF norm AVERAGE OR10a of CCCCCC(=O)OCC [ethyl hexanoate] = ? 0

---

# Assay target: Drosophila OR47a (Drosophila melanogaster, UniProt P81921)
# Construct: expressed in transfected cells
# Sequence (P81921 whole entry, one chain of several): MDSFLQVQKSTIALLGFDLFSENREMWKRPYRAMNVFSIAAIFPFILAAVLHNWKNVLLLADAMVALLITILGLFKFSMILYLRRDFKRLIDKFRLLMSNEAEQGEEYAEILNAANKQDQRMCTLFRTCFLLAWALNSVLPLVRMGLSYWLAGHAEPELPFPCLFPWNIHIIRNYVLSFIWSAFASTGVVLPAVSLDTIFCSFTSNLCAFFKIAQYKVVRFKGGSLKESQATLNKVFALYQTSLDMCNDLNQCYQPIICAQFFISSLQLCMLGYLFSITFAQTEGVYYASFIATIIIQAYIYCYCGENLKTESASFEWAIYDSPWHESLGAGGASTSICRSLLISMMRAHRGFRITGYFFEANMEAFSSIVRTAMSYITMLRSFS
# Assay details: Calcium ion fluorescence (GCaMP6) assay, OR47a stable HEK293 cell line
# Assay type: cell-based
# Protocol conditions: OR47a cell line; odorant cc. 10 µM; mean of biological replicates
Test readout: Average response
Give the figure only, with no unit attached.

Example cases with answers are listed next.
{"Molecule": "CC1=CCC23CC1C(C)(C)C2CCC3C (stereo not drawn) [α-funebrene]", "Test readout": "Average response", "Assay result": 0.00}
{"Molecule": "CCCCC(C)O (stereo not drawn) [2-hexanol]", "Test readout": "Average response", "Assay result": 0.00}
{"Molecule": "O=Cc1ccccc1 [benzaldehyde]", "Test readout": "Average response", "Assay result": 0.00}
{"Molecule": "CCCCCCCCCC=O [decanal]", "Test readout": "Average response", "Assay result": 0.00}
{"Molecule": "C=C(C)C1CCC2(C)OC2C1 (single isomer, unassigned; (+)) [(+)-limonene oxide]", "Test readout": "Average response", "Assay result": 0.00}
{"Molecule": "Cc1ccc(C)cc1 [p-xylene]", "Test readout": "Average response", "Assay result": 0.00}

May I ask what Average response has been recorded for Cc1cccc(C)c1 [m-xylene] ? 0.00

Name the reported Average response value associated with the molecule Cc1cccc(O)c1 [3-methylphenol] 0.00

Look up Average response for this molecule: CCCCCCCCCCC [undecane] 0.00

// returns reported Average response for input Cc1ccc(C)c(C)c1 [1,2,4-trimethylbenzene] 0.00

---

# Assay target: Drosophila OR49b (Drosophila melanogaster)
# Construct: expressed in transfected cells
# Sequence (Q9V6H2 whole entry, one chain of several): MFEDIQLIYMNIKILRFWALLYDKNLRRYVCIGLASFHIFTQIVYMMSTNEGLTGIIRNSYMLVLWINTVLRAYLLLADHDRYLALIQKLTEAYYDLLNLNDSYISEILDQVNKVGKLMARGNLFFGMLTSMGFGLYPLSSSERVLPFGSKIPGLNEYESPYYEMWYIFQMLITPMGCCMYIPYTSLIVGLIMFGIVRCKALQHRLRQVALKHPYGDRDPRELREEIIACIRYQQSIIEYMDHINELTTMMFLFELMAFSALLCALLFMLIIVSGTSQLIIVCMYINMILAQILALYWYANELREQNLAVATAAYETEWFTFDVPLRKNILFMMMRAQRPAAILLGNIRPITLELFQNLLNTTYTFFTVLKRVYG
# Assay details: cell-based
# Protocol conditions: LOG EC50 (fitted parameter), OR49b; fit of each biological replicate; log of EC50, unit inferred
Test readout: pEC50
The quantity pEC50 is defined as the negative base-10 logarithm of the molar concentration.

Recorded pEC50 for `C=Cc1ccccc1` , please? 4.33

---

# Assay target: Drosophila OR49b (Drosophila melanogaster)
# Construct: expressed in transfected cells
# Assay details: cell-based
# Protocol conditions: OR49b cell line; odorant cc. 1 µM; mean of biological replicates
Test readout: Average response
Write the value as a bare number.

{"Molecule": "CCCCCCCO", "Assay target": "Drosophila OR49b (Drosophila melanogaster)", "Test readout": "Average response", "Assay result": 0.00}
{"Molecule": "Cc1ccccc1", "Assay target": "Drosophila OR49b (Drosophila melanogaster)", "Test readout": "Average response", "Assay result": 0.00}
{"Molecule": "CC1=CCC2CC1C2(C)C (stereo not drawn)", "Assay target": "Drosophila OR49b (Drosophila melanogaster)", "Test readout": "Average response", "Assay result": 0.0281}
{"Molecule": "CC(=O)c1ccccc1", "Assay target": "Drosophila OR49b (Drosophila melanogaster)", "Test readout": "Average response", "Assay result": 0.00}
{"Molecule": "CCCCOC(=O)CC [butyl propanoate]", "Assay target": "Drosophila OR49b (Drosophila melanogaster)", "Test readout": "Average response", "Assay result": 0.00}

We now examine a further molecule.
Hello, I am looking for reported Average response with Drosophila OR49b (Drosophila melanogaster) for `CC/C=C/CCO` . Could you help? 0.00

---

# DF norm AVERAGE OR71a per entry
# Assay target: Drosophila OR71a (Drosophila melanogaster)
# Construct: expressed in transfected cells
# Sequence (Q9VUK5 1-378): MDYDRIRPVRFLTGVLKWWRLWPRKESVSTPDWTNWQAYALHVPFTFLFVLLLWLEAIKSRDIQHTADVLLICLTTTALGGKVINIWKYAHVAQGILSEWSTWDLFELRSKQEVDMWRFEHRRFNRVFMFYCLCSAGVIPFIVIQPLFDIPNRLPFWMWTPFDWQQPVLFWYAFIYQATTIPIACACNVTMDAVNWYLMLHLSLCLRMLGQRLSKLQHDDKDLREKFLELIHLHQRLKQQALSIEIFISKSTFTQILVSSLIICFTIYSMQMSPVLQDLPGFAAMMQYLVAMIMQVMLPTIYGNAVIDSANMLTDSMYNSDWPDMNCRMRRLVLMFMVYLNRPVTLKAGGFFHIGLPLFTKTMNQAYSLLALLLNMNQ
# Sequence (Q9VNB5 1-486 partner): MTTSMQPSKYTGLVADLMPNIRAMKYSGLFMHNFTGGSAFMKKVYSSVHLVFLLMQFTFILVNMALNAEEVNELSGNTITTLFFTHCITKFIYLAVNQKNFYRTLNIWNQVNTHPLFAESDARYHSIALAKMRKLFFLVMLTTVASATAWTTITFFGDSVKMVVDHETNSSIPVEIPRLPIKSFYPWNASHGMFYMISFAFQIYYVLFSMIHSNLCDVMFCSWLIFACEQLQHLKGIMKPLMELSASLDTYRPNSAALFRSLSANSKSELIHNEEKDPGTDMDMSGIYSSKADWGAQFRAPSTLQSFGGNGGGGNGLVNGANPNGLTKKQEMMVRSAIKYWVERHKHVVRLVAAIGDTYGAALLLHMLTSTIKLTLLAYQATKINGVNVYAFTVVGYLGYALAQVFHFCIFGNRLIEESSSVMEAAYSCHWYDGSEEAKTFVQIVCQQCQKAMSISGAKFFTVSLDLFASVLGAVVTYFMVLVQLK
# Assay details: Calcium ion fluorescence (GCaMP6) assay, OR71a stable HEK293 cell line
# Format: cell-based
# Protocol conditions: concentration 100; normalized fluorescence change, values below 0.05 threshold given as 0
Lab note: write the figure by itself, no unit.

{"Compound": "C=CC(O)C/C=C\\CC (centres unmarked)", "DF norm AVERAGE OR71a": 0}
{"Compound": "C=C(C)C1CCC2(C)OC2C1 (single isomer, unassigned; (+)) [(+)-limonene oxide]", "DF norm AVERAGE OR71a": 0}
{"Compound": "CCCC(O)CC (centres unmarked)", "DF norm AVERAGE OR71a": 0}
{"Compound": "CCCCCC(=O)CC", "DF norm AVERAGE OR71a": 0}
{"Compound": "Cc1ccc(O)cc1", "DF norm AVERAGE OR71a": 0}

Fill blank: measured DF norm AVERAGE OR71a of the compound C=C1CC[C@H]2O[C@]2(C)CC[C@@H]2[C@@H]1CC2(C)C [(-)-caryophyllene oxide] is ____. 0.07441

For the compound `Cc1ccc(C)c(C)c1` , what DF norm AVERAGE OR71a is on record? 0

Param item = `Cc1cccc(O)c1` ; retrieve measured DF norm AVERAGE OR71a. 0

Endpoint output: DF norm AVERAGE OR71a of `CCCCCCCO` . Value? 0

I would be grateful if you could share the reported DF norm AVERAGE OR71a for CC1=CCC2C(C1)C2(C)C (centres unmarked) . 0

For the compound `CCCCC(C)=O` , what DF norm AVERAGE OR71a is on record? 0
